System: 22RV1
test details: CellTiter-Glo cell proliferation assay
Format: cell-based
condition label: Homo sapiens, Prostate, Helical-HET.546Q > R
parameter measured: EC50 (nM)
One number for each entry, in nM.

Name the recorded EC50 of the item Cc1nc(-c2cn3c(n2)-c2ccc(-c4cnn(C(C)(C)C(N)=O)c4)cc2OCC3)n(C(C)C)n1 in your answer.
50

====

Tested on: CAMA-1
test details: CellTiter-Glo cell proliferation assay
Assay type: cell-based
condition label: Homo sapiens, Breast, PTEN*
parameter measured: EC50 (µM)
Numbers only, in µM.

For the compound Cc1nc(-c2cn3c(n2)-c2ccc(-c4cnn(C(C)(C)C(N)=O)c4)cc2OCC3)n(C(C)C)n1 [GDC-0032] , give its reported EC50.
5.62

====

Test system: ZR75-30
test details: CellTiter-Glo cell proliferation assay
Assay type: cell-based
condition label: Homo sapiens, ZR-75-30, Breast, WT
parameter measured: EC50 (µM)
Numbers only, in µM.

Identify EC50 associated with the molecule Cc1nc(-c2cn3c(n2)-c2ccc(-c4cnn(C(C)(C)C(N)=O)c4)cc2OCC3)n(C(C)C)n1
0.021

====

Test system: H1703
test details: CellTiter-Glo cell proliferation assay
Type: cell-based
condition label: Homo sapiens, NCI-H1703, Lung(NSCLC), WT
parameter measured: EC50 (nM)
Give bare numbers, in nM.

Jot down EC50 (H1703) of Cc1nc(-c2cn3c(n2)-c2ccc(-c4cnn(C(C)(C)C(N)=O)c4)cc2OCC3)n(C(C)C)n1 [GDC-0032] .
136

====

Test system: HCC-1143
test details: CellTiter-Glo cell proliferation assay
Format: cell-based
condition label: Homo sapiens, HCC1143, Breast, WT
parameter measured: pEC50
One number for each entry, as −log10 of the molar value.

Annotate the molecule Cc1nc(-c2cn3c(n2)-c2ccc(-c4cnn(C(C)(C)C(N)=O)c4)cc2OCC3)n(C(C)C)n1 with its measured pEC50.
5.53

====

Test system: H2171
test details: CellTiter-Glo cell proliferation assay
Type: cell-based
condition label: Homo sapiens, NCI-H2171, Lung(SC), K-RAS
parameter measured: pEC50
One number for each entry, as −log10 of the molar value.

Please report the measured pEC50 for Cc1nc(-c2cn3c(n2)-c2ccc(-c4cnn(C(C)(C)C(N)=O)c4)cc2OCC3)n(C(C)C)n1 [GDC-0032]
5.84

====

Test system: H322
test details: CellTiter-Glo cell proliferation assay
Type: cell-based
condition label: NCI-H322, Lung(NSCLC), WT
parameter measured: EC50 (nM)
Give bare numbers, in nM.

Fill in EC50 for record Cc1nc(-c2cn3c(n2)-c2ccc(-c4cnn(C(C)(C)C(N)=O)c4)cc2OCC3)n(C(C)C)n1 [GDC-0032]
280

====

System: MO59J
test details: CellTiter-Glo cell proliferation assay
Assay type: cell-based
condition label: Glioma, PTEN/KRAS
parameter measured: EC50 (µM)
Numbers only, in µM.

Please list EC50 recorded for the molecule Cc1nc(-c2cn3c(n2)-c2ccc(-c4cnn(C(C)(C)C(N)=O)c4)cc2OCC3)n(C(C)C)n1
5.65

====

System: INK-134
test details: CellTiter-Glo cell proliferation assay
Type: cell-based
condition label: Glioma, Helical-HET.545E > D, HET.1043M > I
parameter measured: EC50 (µM)
One number for each entry, in µM.

Enter recorded EC50 with INK-134 for Cc1nc(-c2cn3c(n2)-c2ccc(-c4cnn(C(C)(C)C(N)=O)c4)cc2OCC3)n(C(C)C)n1 here.
0.976

====

System: BT549
test details: CellTiter-Glo cell proliferation assay
Type: cell-based
condition label: Homo sapiens, BT-549, Breast, PTEN
parameter measured: pEC50
One number for each entry, as −log10 of the molar value.

Using known records, supply pEC50 for Cc1nc(-c2cn3c(n2)-c2ccc(-c4cnn(C(C)(C)C(N)=O)c4)cc2OCC3)n(C(C)C)n1
5.92

====

Tested on: A427
test details: CellTiter-Glo cell proliferation assay
Assay type: cell-based
condition label: Homo sapiens, A-427, Lung(NSCLC), K-RAS
parameter measured: EC50 (µM)
Give bare numbers, in µM.

Return EC50 (reported value) for this compound: Cc1nc(-c2cn3c(n2)-c2ccc(-c4cnn(C(C)(C)C(N)=O)c4)cc2OCC3)n(C(C)C)n1
10

====

System: SW403
test details: CellTiter-Glo cell proliferation assay
Assay type: cell-based
condition label: Homo sapiens, SW-403, Colon, KRAS/HET.546Q > K
parameter measured: pEC50
Answers are plain numbers, as −log10 of the molar value.

Indicate its recorded pEC50; the compound in question is Cc1nc(-c2cn3c(n2)-c2ccc(-c4cnn(C(C)(C)C(N)=O)c4)cc2OCC3)n(C(C)C)n1
6.84

====

Test system: HCC-2218
test details: CellTiter-Glo cell proliferation assay
Format: cell-based
condition label: Homo sapiens, HCC2218, Breast, WT
parameter measured: EC50 (nM)
Numbers only, in nM.

Please give measured EC50 of the following entry: Cc1nc(-c2cn3c(n2)-c2ccc(-c4cnn(C(C)(C)C(N)=O)c4)cc2OCC3)n(C(C)C)n1
90

====

System: H520
test details: CellTiter-Glo cell proliferation assay
Type: cell-based
condition label: Homo sapiens, NCI-H520, Lung(NSCLC), PTEN
parameter measured: pEC50
Numbers only, as −log10 of the molar value.

Answer with reported pEC50 of Cc1nc(-c2cn3c(n2)-c2ccc(-c4cnn(C(C)(C)C(N)=O)c4)cc2OCC3)n(C(C)C)n1
6.58

====

System: SW48 PIK3CA H1047R knock-in mutant subclone
test details: four day CellTiter-Glo viability assay, SW48 isogenic cell line set
condition label: Homo sapiens, SW48, 96 h, read-out: Viability EC50
parameter measured: pEC50
One number for each entry, as −log10 of the molar value.

Give me measured pEC50, please, for this compound: Cc1nc(-c2cn3c(n2)-c2ccc(-c4cnn(C(C)(C)C(N)=O)c4)cc2OCC3)n(C(C)C)n1 [GDC-0032]
8.10

====

Tested on: SKBR3
test details: CellTiter-Glo cell proliferation assay
Format: cell-based
condition label: Homo sapiens, SK-BR-3, Breast, HER2 Amplified
parameter measured: pEC50
Answers are plain numbers, as −log10 of the molar value.

Given Cc1nc(-c2cn3c(n2)-c2ccc(-c4cnn(C(C)(C)C(N)=O)c4)cc2OCC3)n(C(C)C)n1 [GDC-0032] , respond with its pEC50.
7.37

====

Tested on: H1568
test details: CellTiter-Glo cell proliferation assay
Format: cell-based
condition label: NCI-H1568, Lung(NSCLC), WT
parameter measured: EC50 (µM)
Give bare numbers, in µM.

// fetch EC50 given entry Cc1nc(-c2cn3c(n2)-c2ccc(-c4cnn(C(C)(C)C(N)=O)c4)cc2OCC3)n(C(C)C)n1
10

====

System: HDQ-P1
test details: CellTiter-Glo cell proliferation assay
Type: cell-based
condition label: Homo sapiens, Breast, WT
parameter measured: EC50 (nM)
Give bare numbers, in nM.

Provide measured EC50 value, entry: Cc1nc(-c2cn3c(n2)-c2ccc(-c4cnn(C(C)(C)C(N)=O)c4)cc2OCC3)n(C(C)C)n1 [GDC-0032]
258

====

Test system: SW620
test details: CellTiter-Glo cell proliferation assay
Type: cell-based
condition label: Homo sapiens, SW-620, Colon, K-RAS
parameter measured: EC50
I'd appreciate it if you wrote the number followed by its unit.

Give EC50 for the following compound: Cc1nc(-c2cn3c(n2)-c2ccc(-c4cnn(C(C)(C)C(N)=O)c4)cc2OCC3)n(C(C)C)n1
10 µM

====

Tested on: A375
test details: CellTiter-Glo cell proliferation assay
Assay type: cell-based
condition label: Homo sapiens, A-375, Melanoma, B-Raf
parameter measured: EC50 (µM)
Answers are plain numbers, in µM.

Check the records and state EC50 for Cc1nc(-c2cn3c(n2)-c2ccc(-c4cnn(C(C)(C)C(N)=O)c4)cc2OCC3)n(C(C)C)n1 [GDC-0032]
10
